Entry source: PubChem BioAssay (NCI)

System: SK-MEL-5 melanoma
assay.overview: NCI-60 one-dose screen, 48 h (100 = growth as untreated, 0 = no growth, -100 = all killed)
condition.description: 10 µM unless noted
About 83,000 compounds went through this panel and 20% of them were active in at least one assay; those are over-represented in the sample as a whole.
growth below 80% gives n; growth at or above it gives y.

compound: CCC1(CC)C(OC)NC(Br)=C(C#N)C1(C#N)C(N)=O (configuration not stated)
group: y

compound: CCCC[N+](C)(N)CCCC
group: y

compound: COC(=O)Nc1nc2ccc(C(=O)c3ccccc3N(C)C3COC3)cc2[nH]1
group: n

compound: CCCOC(=O)c1c(C)n(C)c2scc[n+]12
group: y

compound: CC1CCCCC[N+]12CCCC2 (configuration not stated)
group: y

compound: CN1NC(c2ccccc2)NN(C)C1=O
group: y

compound: CC([C@H]1CC=C2C3CCC4=C[C@@H](N(C)C)CC[C@]4(C)C3CC[C@@]21C)N(C)C (some centres not stated)
group: n

compound: CC(C)(C)C(=O)OCOP(=O)(OCOC(=O)C(C)(C)C)C1CC(O)N(O)C1=O (configuration not stated)
group: n

compound: COc1cccc(CNC(=O)c2cccc(C3CC(=O)c4c(cc(OC)c(OC)c4OC)O3)c2)c1 (configuration not stated)
group: n

compound: Nc1ccc(S(=O)(=O)Nc2cc(F)cc(F)c2)cc1
group: y

compound: O=C1/C(=C\c2cn(-c3nc(N4CCOCC4)nc(N4CCOCC4)n3)c3ccccc23)c2ccccc2N1c1c(Cl)cccc1Cl
group: y

compound: CCCCN(CCCC)c1ccc(C(=O)O)cc1
group: y

compound: COc1cc(/C=C/C(=O)/C=C(/C=C/c2ccc(OC(C)=O)c(OC)c2)OB(F)F)ccc1OC(C)=O
group: n

compound: C[C@@H](c1ccc2c(c1)[nH]c1ccc(Cl)cc12)c1nc2ccc(Cl)cc2[nH]1
group: y

compound: CC(C)(C)c1ccc(OCCOC(=O)CBr)cc1
group: y

compound: CC(C)OC(=O)c1ccc2n1CCCc1cnc(Nc3ccccc3)nc1-2
group: n

compound: O=C(/C=C/c1cccc(O)c1)c1cccc(-n2cc(-c3ccc(Cl)cc3)[nH]c2=O)c1
group: n

compound: COC(=O)C(C(=O)OC)C(Br)C(Br)C(Br)c1ccccc1 (configuration not stated)
group: y

compound: CC(=O)Nc1ccc(CC#N)cc1Br
group: y

compound: CC(=O)c1nn(-c2ccc(C)cc2)cc1C(=O)c1cc2c(ccc3ccccc32)oc1=O
group: y

compound: OCCN1CCCN(CCCN2c3ccccc3Sc3ccc(C(F)(F)F)cc32)CC1
group: n

* * *

This listing pairs molecules with measured growth.
Test system: HOP-92 NSCLC
assay.overview: NCI-60 one-dose screen, 48 h (100 = growth as untreated, 0 = no growth, -100 = all killed)
condition.description: 10 µM
The panel holds about 83,000 compounds, 20% with a hit somewhere; the sample as a whole holds those more often. Active and inactive are the calls of the source. Rule for the calls: active = growth percent below 10; inactive = the rest.

molecule: COc1cc(OC)c(NC(=O)n2ncc3cc(Nc4ncnc5ccccc45)ccc32)cc1Cl
growth: 87.3% (inactive)
--
molecule: COc1cc2cc3cc4cc(OC)c(OC)cc4c(C)[n+]3cc2cc1OC (tested in a mixture with another compound)
growth: 143% (inactive)
--
molecule: COc1ccc2c(c1)/C(=C/c1c(-c3cc(OC)c(OC)c(OC)c3)nc3sccn13)C(=O)N2
growth: 31.7% (inactive)
--
molecule: O=C(Cc1ccccc1[N+](=O)[O-])c1ccc2c(c1)OCO2
growth: 82% (inactive)
--
molecule: CC(=N\N=C(N)N)/C(=N/N=C(N)N)c1ccccc1
growth: 95.2% (inactive)
--
molecule: COC(=O)/C=C/c1cc(O)c2oc(-c3ccc(O)c(O)c3)c(C(=O)OC)c2c1
growth: 56.1% (inactive)
--
molecule: O=C(CN1C(=O)NC(c2ccccc2)(c2ccccc2)C1=O)c1ccc(N2CCCC2)cc1
growth: 73.8% (inactive)
--
molecule: CC([C@H]1CC=C2C3CCC4=C[C@@H](N(C)C)CC[C@]4(C)C3CC[C@@]21C)N(C)C (some centres undefined)
growth: 70.2% (inactive)
--
molecule: CCCCCCNc1nc(N2CCOCC2)c2[nH]c(NCCCCCC)nc2n1
growth: -77.7% (active)
